Where these numbers come from: patent US12187672B2

System: IL-6
protocol-summary: LPS-induced IL-6 secretion reduction in RAW264.7 cells (ELISA)
Assay type: cell-based, mouse
measurement-conditions: sample 100 μg/ml 1 h, then LPS 1 μg/ml 24 h, Table 3
IL-6 concentration (average ± deviation) values for the molecules below.
Your answer is read as pg/µL, so omit the unit and give the number.

Some molecules with recorded IL-6 concentration (average ± deviation):
>>> quantitative_readout("CCCCC/C=C\\C/C=C\\CCCCCCCC(=O)OC(COC(=O)CCCC)COC(=O)CCCCCCCCCCC (stereo not drawn)")
0.765
>>> quantitative_readout("CCCCC/C=C\\C/C=C\\CCCCCCCC(=O)OC(COC(C)=O)COC(=O)CCCCCCCCCCCCCCC (stereo not drawn) [EC-18, 1-palmitoyl-2-linoleoyl-3-acetylglycerol, reference compound]")
0.491
>>> quantitative_readout("CCCCC/C=C\\C/C=C\\CCCCCCCC(=O)OC(COC(=O)CCCCCCCCC)COC(=O)C(C)(C)C (stereo not drawn)")
0.645
>>> quantitative_readout("CCCCC/C=C\\C/C=C\\CCCCCCCC(=O)OC(COC(=O)CCC)COC(=O)CCCCCCCCC (stereo not drawn)")
0.619
>>> quantitative_readout("CCCCC/C=C\\C/C=C\\CCCCCCCC(=O)OC(COC(=O)CCCCCCCCCCCCCCC)COC(=O)C1CC1 (stereo not drawn)")
0.652

Pending molecule:
In: Recorded IL-6 concentration (average ± deviation) of CCCCC/C=C\C/C=C\CCCCCCCC(=O)OC(COC(=O)CC)COC(=O)CCCCCCC (stereo not drawn) , please.
Out: 0.705

----------
Tested on: IL-6
protocol-summary: LPS-induced IL-6 secretion reduction in RAW264.7 cells (ELISA)
Assay type: cell-based, mouse
measurement-conditions: sample 100 μg/ml 1 h, then LPS 1 μg/ml 24 h, Table 3
IL-6 concentration (average ± deviation) values for the compounds below.
Your answer is read as pg/µL, so omit the unit and give the number.

Some compounds with recorded IL-6 concentration (average ± deviation):
>>> quantitative_readout("CCCCC/C=C\\C/C=C\\CCCCCCCC(=O)OC(COC(=O)CCCC)COC(=O)CCCCCCCCC (stereo not shown) [EC_A99]")
0.666
>>> quantitative_readout("CCCCCC=CCC=CCCCCCCCC(=O)OC(COC(=O)CCCCCCC)COC(=O)C(C)(C)C (stereo not shown) [EC_A89]")
0.736
>>> quantitative_readout("CCCCC/C=C\\C/C=C\\CCCCCCCC(=O)OC(COC(=O)CCCCCCC)COC(=O)C(C)C (stereo not shown) [EC_A88]")
0.792
>>> quantitative_readout("CCCCC/C=C\\C/C=C\\CCCCCCCC(=O)OC(COC(=O)CCCCCCCCCCC)COC(=O)C(C)(C)C (stereo not shown) [EC_A95]")
0.777
>>> quantitative_readout("CCCCC/C=C\\C/C=C\\CCCCCCCC(=O)OC(COC(=O)CC)COC(=O)CCCCCCCCCCC (stereo not shown) [EC_A91]")
0.752
>>> quantitative_readout("CCCCC/C=C\\C/C=C\\CCCCCCCC(=O)OC(COC(=O)CCCCCCCCC)COC(=O)C(C)C (stereo not shown) [EC_A100]")
0.749

In: State its IL-6 concentration (average ± deviation) on IL-6: CCCCC/C=C\C/C=C\CCCCCCCC(=O)OC(COC(=O)CCCCCCCCC)COC(=O)C(C)CC (stereo not shown) [EC_A102]
Out: 0.738

In: State its IL-6 concentration (average ± deviation) on IL-6: CCCCC/C=C\C/C=C\CCCCCCCC(=O)OC(COC(=O)CCCC)COC(=O)CCCCCCC (stereo not shown) [EC_A86]
Out: 0.796

In: State its IL-6 concentration (average ± deviation) on IL-6: CCCCC/C=C\C/C=C\CCCCCCCC(=O)OC(COC(=O)CCCCCCCCCCC)COC(=O)C(C)C (stereo not shown) [EC_A94]
Out: 0.702

In: State its IL-6 concentration (average ± deviation) on IL-6: CCCCC/C=C\C/C=C\CCCCCCCC(=O)OC(COC(=O)CCCCCCCC)COC(=O)CCCCCCCCCCCCCCC (stereo not shown) [EC_A84]
Out: 0.799

In: State its IL-6 concentration (average ± deviation) on IL-6: CCCCC/C=C\C/C=C\CCCCCCCC(=O)OC(COC(=O)CCC)COC(=O)CCCCCCCCCCC (stereo not shown) [EC_A92]
Out: 0.800

----------
System: IL-4
protocol-summary: PKC activator-induced IL-4 secretion reduction in EL-4 cells (ELISA)
Type: cell-based, mouse
measurement-conditions: sample 100 μg/ml 2 h, then PKC activator 18 h, Table 12
Classification field: enter Fulfilled for IL-4 concentration (average ± deviation) values not below 600 pg/µL, Not fulfilled for values below it.

// known answers, use as guide
>>> assigned_label("CCCCC/C=C\\C/C=C\\CCCCCCCC(=O)OC(COC(=O)CCC)COC(=O)CCCCCCCCCCC (stereo not drawn)")
"Not fulfilled"
>>> assigned_label("CCCCC/C=C\\C/C=C\\CCCCCCCC(=O)OC(COC(=O)CCCCCCCCC)COC(=O)C(C)CC (stereo not drawn)")
"Fulfilled"
>>> assigned_label("CCCCC/C=C\\C/C=C\\CCCCCCCC(=O)OC(COC(=O)CCCCCC)COC(=O)CCCCCCCCCCCCCCC (stereo not drawn)")
"Fulfilled"
>>> assigned_label("CCCCC/C=C\\C/C=C\\CCCCCCCC(=O)OC(COC(=O)CCC)COC(=O)CCCCCCC (stereo not drawn)")
"Not fulfilled"
>>> assigned_label("CCCCC/C=C\\C/C=C\\CCCCCCCC(=O)OC(COC(=O)CC)COC(=O)CCCCCCCCC (stereo not drawn)")
"Not fulfilled"

In: Record CCCCC/C=C\C/C=C\CCCCCCCC(=O)OC(COC(=O)CCCC)COC(=O)CCCCCCCCC (stereo not drawn) ; criterion: IL-4 concentration (average ± deviation) no lower than 600 pg/µL. Met?
Out: Not fulfilled

In: Record CCCCC/C=C\C/C=C\CCCCCCCC(=O)OC(COC(=O)CC)COC(=O)CCCCCCC (stereo not drawn) ; criterion: IL-4 concentration (average ± deviation) no lower than 600 pg/µL. Met?
Out: Not fulfilled

----------
Test system: IL-4
protocol-summary: PKC activator-induced IL-4 secretion reduction in EL-4 cells (ELISA)
Assay type: cell-based, mouse
measurement-conditions: sample 100 μg/ml 2 h, then PKC activator 18 h, Table 12
experimental-readout: IL-4 concentration (average ± deviation)
The reply should consist of the numeric value with the unit placed after it.

>>> result("CCCCC/C=C\\C/C=C\\CCCCCCCC(=O)OC(COC(=O)CC)COC(=O)CCCCCCCCCCCCCCC (stereo not shown)")
"557 ± 11.5 pg/µL"
>>> result("CCCCC/C=C\\C/C=C\\CCCCCCCC(=O)OC(COC(=O)CCCC)COC(=O)CCCCCCC (stereo not shown)")
"476.0 ± 2.5 pg/µL"
>>> result("CCCCC/C=C\\C/C=C\\CCCCCCCC(=O)OC(COC(=O)CCCCCCCC)COC(=O)CCCCCCCCCCCCCCC (stereo not shown)")
"615.6 ± 25.0 pg/µL"

Pending molecule:
In: Recorded IL-4 concentration (average ± deviation) of CCCCC/C=C\C/C=C\CCCCCCCC(=O)OC(COC(=O)CCCCCCCCCCC)COC(=O)C(C)CC (stereo not shown) , please.
Out: 582.9 ± 17.3 pg/µL

----------
STAT3 activity_SEAP expression(%) (average ± deviation) values for the compounds below.
Test system: STAT3
protocol-summary: IL-6-induced STAT3 activity, SEAP expression in HEK-Blue IL-6 cells
Assay type: cell-based
measurement-conditions: HEK-Blue IL-6 cells; sample 100 μg/ml 1 h, then IL-6 5 ng/ml 24 h; negative control = 100
Your answer is read as %, so omit the unit and give the number.

>>> quantitative_readout("CCCCC/C=C\\C/C=C\\CCCCCCCC(=O)OC(COC(=O)CCCCCCCCCCCCCCC)COC(=O)c1ccccc1 (stereo not drawn)")
171.1
>>> quantitative_readout("CCCCC/C=C\\C/C=C\\CCCCCCCC(=O)OC(COC)COC(=O)CCCCCCCCCCCCCCC (stereo not drawn)")
167.2
>>> quantitative_readout("CCCCC/C=C\\C/C=C\\CCCCCCCC(=O)OC(COC(=O)CCCCCCCCCCCCCCC)COC(=O)C(C)(C)C (stereo not drawn)")
169.5
>>> quantitative_readout("CCCCC/C=C\\C/C=C\\CCCCCCCC(=O)OC(COC(=O)CCCCCCCCCCCCCCC)COC(C)OC (stereo not drawn)")
259.5
>>> quantitative_readout("CCCCC/C=C\\C/C=C\\CCCCCCCC(=O)OC(COC(=O)CCCC)COC(=O)CCCCCCCCCCCCCCC (stereo not drawn)")
166.2

Pending compound:
In: Recorded STAT3 activity_SEAP expression(%) (average ± deviation) of CCCCC/C=C\C/C=C\CCCCCCCC(=O)OC(COC(=O)CCCCCCCCCCCCCCC)COC(=O)C(C)CC (stereo not drawn) , please.
Out: 196.7
